Parameter: cell viability. Scope: all listed entries.
- Test system: U2OS
- test-name: cell viability relative to DMSO; higher = less toxic
- experimental-setup: 72 h; 10000 nM
reported-endpoint: cell viability

compound	recorded-result
Cn1ncc(Cl)c1-c1cc(C(=O)N[C@H](CN)Cc2cccc(F)c2)sc1Cl	89.2%
O=C(O)Cc1cccc2c(=O)cc(-c3ccccc3)oc12 [mitoflaxone]	104%
CC(C)n1nc(-c2ccc3oc(N)nc3c2)c2c(N)ncnc21 [MLN0128]	12%
CCn1c(-c2nonc2N)nc2cnc(Oc3cccc(NC(=O)c4ccc(OCCN5CCOCC5)cc4)c3)cc21	62.1%
COc1cc2c(cc1O)CC[C@@H]1[C@@H]2CC[C@]2(C)[C@@H](O)CC[C@@H]12 [2-methoxyestradiol]	46.5%
Oc1nc(O)c2nc(O)[nH]c2n1 [uric-acid]	98.4%
C[n+]1ccc(C(=O)NCc2ccccc2)cc1 [enisamium-iodide]	103%
NS(=O)(=O)NCc1csc2ccccc12	99.8%
CCCN(C/C=C/I)[C@H]1CCc2ccc(O)cc2C1 [7-hydroxy-PIPAT]	98.3%
CCCNC(=O)NS(=O)(=O)c1ccc(Cl)cc1 [chlorpropamide]	93.6%
CC(=O)Nc1cccc2c1c(Sc1ccc(Cl)cc1)c(C)n2CC(=O)O [AZD1981]	97.6%
C=CC(=O)N1CCN(C(=O)CNc2cc(I)c(Cl)cc2O)CC1 [K-Ras(G12C)-inhibitor-12]	93.5%
